Tested on: HIV-1 (IIIB)
Type: cell-based
assay context: 5 × 10^-6 M; 24 hours
Ends that are not written are not given here.
property: number of syncytia (HIV-1 induced cell fusion)

RAFVTIGK [RAFVTIGK (SEQ ID NO:6), reference compound]    +++
[GPGRAF]8 -MLCD    +++
[IGPGRAF]8 -MLC (also: octameric multibranched MLC construct)    ±
[Ac-GPGRAF]8 -MLC (also: eight copies on MLC (multibranched lysine core)) [N-terminal acetylation]    +++

----------
Test system: HIV-1 (IIIB)
Assay type: cell-based
assay context: 5 × 10^-5 M; 24 hours
property: number of syncytia (HIV-1 induced cell fusion)

[GPGRAF]8 -MLCD    +++
